- Tested on: PPARg:RXRa 90nM:30nM, anti-RXR (NR concentration 90 nM, RXRa partner concentration 30 nM)
- Run Description: PBM binding z-score (relative to random genomic background probes); higher = stronger binding; sequences stand for … in GC…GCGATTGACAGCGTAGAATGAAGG
Observed Property: PBM binding z-score
Please give the numeric answer without any surrounding text.

Fill in reported PBM binding z-score for this entry: TCGAGTAGGTAACCAATGGGGCATTCAGCTTTCT 0.602

Fill in reported PBM binding z-score for this entry: CCTAGCAGGCCAATCTGGGTCACTCCAGGCTTGA 1.03

Fill in reported PBM binding z-score for this entry: CCTTACGGGTCACTCCAAGTTATAGCATCGGAGT 2.66

Fill in reported PBM binding z-score for this entry: AGAATGAGGTTACCAAAGATCCGGGAAACGCTTG 2.13

Fill in reported PBM binding z-score for this entry: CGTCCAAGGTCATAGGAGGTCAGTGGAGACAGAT 4.69

Fill in reported PBM binding z-score for this entry: GCTGCTAGGTCACGTTGGTCAGCTAACGGGTACG 2.79

Fill in reported PBM binding z-score for this entry: ATCTCTAGGTAACGAAGTTCAGTGAATGCCGAAC 0.766

Fill in reported PBM binding z-score for this entry: CCTCGGAGGACAACAGGAGGTCAGAGCGGCCAGA -0.31

====

Recorded PBM binding z-score values for a group of sequences are listed next.
- Test system: PPARg homodimer (NR concentration 180 nM)
- Run Description: PBM binding z-score (relative to random genomic background probes); higher = stronger binding; sequences stand for … in GC…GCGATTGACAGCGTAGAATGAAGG

Record excerpt, results attached:
# Sequence, PBM binding z-score
rows = [
    ("TTCCCAAGGTGAGCTGAGGTCGTTGATCCAACTC", 0.0355),
    ("GCTAGTTGGTCAGTAGAAGGTCACACACCGGTCG", 2.88),
    ("GCGACTGGGGCAAACCAGGTTACCATAAGGTTGG", -0.0869),
    ("TCAGACAGGTGAAGTTAACTCAGGTACGCAGTCG", 0.226),
    ("TCTCGGAGGACGCGAAAGGTCAGAGCTCGACATC", 2.2),
    ("CCTCGGAGGACAACAGGAGTTCAGAGCTGCCAGA", 0.513),
    ("CGAACTAGGTCAGAACACGACAGTGAAGGATGAT", 1.06),
    ("TCTTGTAGATCAAGCAGGTTAAGAGAGCCTGAGT", -0.58),
]

Fill in reported PBM binding z-score for this entry: CTAACTAGGTCAAGAGGTCAAAGTCCGCTTCCCG 5.39

====

- Test system: FXR:RXRa (NR concentration 270 nM, RXRa partner concentration 90 nM)
- Run Description: PBM binding z-score (relative to random genomic background probes); higher = stronger binding; sequences stand for … in GC…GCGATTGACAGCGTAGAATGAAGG
The recorded PBM binding z-score of each item maps onto one of these classes: L = under 0.2, M = from 0.2 up to 3, H = 3 and over

# Sequence, Assay System, Classification
rows = [
    ("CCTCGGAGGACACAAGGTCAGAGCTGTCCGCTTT", "FXR:RXRa (NR concentration 270 nM, RXRa partner concentration 90 nM)", "M"),
    ("ATCTCCAGGTAACAAGTTCAGTGAAAGAGAGGAC", "FXR:RXRa (NR concentration 270 nM, RXRa partner concentration 90 nM)", "M"),
    ("ACTATTAGTTGACTAAGGGCAACCGATACGACGC", "FXR:RXRa (NR concentration 270 nM, RXRa partner concentration 90 nM)", "M"),
    ("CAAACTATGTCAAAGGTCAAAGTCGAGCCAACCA", "FXR:RXRa (NR concentration 270 nM, RXRa partner concentration 90 nM)", "H"),
    ("GCTTGCGGGTCAAAGGTTATAGCATGAATAGAAT", "FXR:RXRa (NR concentration 270 nM, RXRa partner concentration 90 nM)", "H"),
]

Hello team, could you let me know which band the following sequence falls into: CCTACTGGGCCATCCGGTCATTGATATCAACGTT M

Hello team, could you let me know which band the following sequence falls into: ACCAGTTGGTCAGCTGAGGTCACACACAATTCGG H

Hello team, could you let me know which band the following sequence falls into: ATCTCTAGGTAACGATAGTTCAGTGAATGCAAAT L

Hello team, could you let me know which band the following sequence falls into: ATCTCTAGGCAAAGATAGTTCAGTGAATGCAAAT L

Hello team, could you let me know which band the following sequence falls into: TGAATGAGGTTAAAGATGAGGGAACGTGGCGTCG M

Hello team, could you let me know which band the following sequence falls into: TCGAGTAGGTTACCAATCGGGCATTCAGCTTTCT L

Hello team, could you let me know which band the following sequence falls into: TGAATTAGGTTAAAGATCAGGGAACGTGGCGTCG M

Hello team, could you let me know which band the following sequence falls into: ACTATTAGTGGACTTAGGGCAACCGATACGACGC L

Hello team, could you let me know which band the following sequence falls into: CGTACTAGGTCATCCAGGACAGTGAATACATTGA H

Hello team, could you let me know which band the following sequence falls into: CGTCCAAGGTCAAGGTCAGTAAAAGAGACTCGAA H

Hello team, could you let me know which band the following sequence falls into: ATCGAAAGTTCGACGAGGTGAGTATACACCGTTT M

Hello team, could you let me know which band the following sequence falls into: ATCGAAAGGTCGTGAGGTGAGTATACAGAAAGGC H

Hello team, could you let me know which band the following sequence falls into: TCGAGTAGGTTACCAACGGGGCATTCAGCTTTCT L

Hello team, could you let me know which band the following sequence falls into: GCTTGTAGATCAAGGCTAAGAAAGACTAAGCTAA L

Hello team, could you let me know which band the following sequence falls into: GAAACAGGGTCAAGGCCAGAGTACGCGTATTGAT H

Hello team, could you let me know which band the following sequence falls into: CCTAGCAGGCCAATCTGGGCCACTCAAGGCTTGA L

Hello team, could you let me know which band the following sequence falls into: TCTTGTAGATCAATAGAGGTTAAGAGAGTGCGCT M

Hello team, could you let me know which band the following sequence falls into: CCGACTGGGGCAAAGTTTACCATACTCAGTACGA L

Hello team, could you let me know which band the following sequence falls into: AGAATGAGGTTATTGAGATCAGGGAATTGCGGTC M

Hello team, could you let me know which band the following sequence falls into: GCAGACAGGTGAAACGGAGGTAACTCAGGGTGGC L

====

- Tested on: THRa:RXRa (NR concentration 90 nM, RXRa partner concentration 90 nM)
- Run Description: PBM binding z-score (relative to random genomic background probes); higher = stronger binding; sequences stand for … in GC…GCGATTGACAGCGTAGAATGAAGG
Observed Property: PBM binding z-score

Record excerpt, results attached:
# Sequence, Assay System, Observed Property, Result
rows = [
    ("TCATATAGGTAATACAGGTCAAAGTCGGCATCTA", "THRa:RXRa (NR concentration 90 nM, RXRa partner concentration 90 nM)", "PBM binding z-score", 2.71),
    ("CGAACTAGTTCATTGACAGGACAGTGAATAGTAA", "THRa:RXRa (NR concentration 90 nM, RXRa partner concentration 90 nM)", "PBM binding z-score", 0.837),
    ("CCGACTGGGGCGAAGGTTACCATACTCAGTACGA", "THRa:RXRa (NR concentration 90 nM, RXRa partner concentration 90 nM)", "PBM binding z-score", 0.439),
]

Fill in reported PBM binding z-score for this entry: CAAACTCGGTCACCGGAAGGTCAAAGTCCGCATG 3.44

Fill in reported PBM binding z-score for this entry: TCTGCTAGGTCAGATGGTCAGCTAACGAGCTGCC 1.51

Fill in reported PBM binding z-score for this entry: AGTCAAAGTTCACTAGGTAACGTTAGATTCAGCT 2.05

Fill in reported PBM binding z-score for this entry: CCGAGTAGGTTATGGGGCATTCACGCAACGGTGA 0.155

Fill in reported PBM binding z-score for this entry: CCGACTGGGGCAAGGTTACTATAACGCACAGCCA 0.939

====

- Test system: RARa homodimer (NR concentration 270 nM)
- Run Description: PBM binding z-score (relative to random genomic background probes); higher = stronger binding; sequences stand for … in GC…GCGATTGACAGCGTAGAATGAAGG
Recorded PBM binding z-score values for a group of sequences are listed next.
Please give the numeric answer without any surrounding text.

# Sequence, Quantitative Readout
data = [
    ("CCGCGGAGGACAACAGGAGGTCAGAGCTGCCAGA", 0.536),
]

Fill in reported PBM binding z-score for this entry: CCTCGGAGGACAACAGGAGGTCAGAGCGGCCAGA 0.103

Fill in reported PBM binding z-score for this entry: TCTAGCAGGCAAGAGGGTCACTCAAGAGGTACGG -0.406
